Data provenance: patent US8389481B2

experiment: Cell death determined by staining with 7-AAD; type: cell-based; conditions: human, DU-145 cells; 3000 nM, 1 hr (FIG. 1C)
Peptide text beside a SMILES is read from it. * marks the point of attachment. 5FAM = O=C1OC2(c3ccc(O)cc3Oc3cc(O)ccc32)c2ccc(C(=O)*)cc21
Provide the recorded viability at 1 h, 3 µM for the entries that follow.

[
  {
    "Compound": "C[C@H](NC(=O)[C@H](C)NC(=O)[C@H](CC(N)=O)NC(=O)[C@H](CC(N)=O)NC(=O)[C@@H](N)CC(N)=O)C(=O)NCC(=O)N[C@@H](CCCNC(=N)N)C(=O)N[C@@H](CCCCN)C(=O)N[C@@H](CCCNC(=N)N)C(=O)N[C@@H](CCCCN)C(=O)N[C@@H](CCCCN)C(=O)N[C@@H](CCCNC(=N)N)C(=O)N[C@H](C(=O)N[C@@H](CCCCNC(=O)c1ccc2c(c1)C(=O)OC21c2ccc(O)cc2Oc2cc(O)ccc21)C(=O)O)[C@@H](C)O [Peptide 362, NNNAAGRKRKKRT-FITC] (H-NNNAAGRKRKKRTK(5FAM)-OH)",
    "Measured value": "< 50%"
  }
]

Now for the compound whose viability at 1 h, 3 µM we want.
q: Give the measured viability at 1 h, 3 µM of C[C@H](NC(=O)[C@H](C)NC(=O)[C@H](Cc1ccccc1)NC(=O)[C@H](Cc1ccccc1)NC(=O)[C@@H](N)Cc1ccccc1)C(=O)NCC(=O)N[C@@H](CCCNC(=N)N)C(=O)N[C@@H](CCCCN)C(=O)N[C@@H](CCCNC(=N)N)C(=O)N[C@@H](CCCCN)C(=O)N[C@@H](CCCCN)C(=O)N[C@@H](CCCNC(=N)N)C(=O)N[C@H](C(=O)N[C@@H](CCCCNC(=O)c1ccc2c(c1)C(=O)OC21c2ccc(O)cc2Oc2cc(O)ccc21)C(=O)O)[C@@H](C)O [Peptide 361, FFFAAGRKRKKRT-FITC] (H-FFFAAGRKRKKRTK(5FAM)-OH) .
a: < 50%
